Please provide measured peptide exchange yield for the entries that follow.
target: T1, HLA-A*02:01 (human); test: UV peptide exchange ELISA
T1 construct: monomers captured on streptavidin plates; also called MHC class I

Ask: Name the recorded peptide exchange yield of the item YVLEGLKSV in your answer.
Result: 50 to 75%

Ask: Name the recorded peptide exchange yield of the item ALDEMGDLLQL in your answer.
Result: 50 to 75%

Ask: Name the recorded peptide exchange yield of the item NLWDLTDASVV in your answer.
Result: 50 to 75%

Ask: Name the recorded peptide exchange yield of the item FLPDEPYIKV in your answer.
Result: 50 to 75%

Ask: Name the recorded peptide exchange yield of the item LLDGFLVNV in your answer.
Result: 50 to 75%

Ask: Name the recorded peptide exchange yield of the item YLMEGSYNKVFL in your answer.
Result: 20 to 50%

Ask: Name the recorded peptide exchange yield of the item SLVNVVPKL in your answer.
Result: 20 to 50%

Ask: Name the recorded peptide exchange yield of the item RLLDMGETDLML in your answer.
Result: 50 to 75%

Ask: Name the recorded peptide exchange yield of the item ALWENPESGEL in your answer.
Result: 20 to 50%

Ask: Name the recorded peptide exchange yield of the item FLVEKQPPQV in your answer.
Result: 50 to 75%

Ask: Name the recorded peptide exchange yield of the item QLIPALAKV in your answer.
Result: 50 to 75%

Ask: Name the recorded peptide exchange yield of the item YLRSVGDGETV in your answer.
Result: 50 to 75%

Ask: Name the recorded peptide exchange yield of the item SLSDGLEEV in your answer.
Result: 20 to 50%

Ask: Name the recorded peptide exchange yield of the item VLAYFLPEA in your answer.
Result: ≥ 75%

Ask: Name the recorded peptide exchange yield of the item YVYPQRLNFV in your answer.
Result: 50 to 75%

Ask: Name the recorded peptide exchange yield of the item ALYTGFSILV in your answer.
Result: 20 to 50%

Ask: Name the recorded peptide exchange yield of the item VLPDPEVLEAV in your answer.
Result: 50 to 75%

Ask: Name the recorded peptide exchange yield of the item ALLELAEEL in your answer.
Result: 50 to 75%

Ask: Name the recorded peptide exchange yield of the item KINDTIYEV in your answer.
Result: 50 to 75%

Ask: Name the recorded peptide exchange yield of the item VLIDEVESL in your answer.
Result: 50 to 75%

Ask: Name the recorded peptide exchange yield of the item LLQEGQALEYV in your answer.
Result: 20 to 50%

Ask: Name the recorded peptide exchange yield of the item FLQAHLHTA in your answer.
Result: ≥ 75%

Ask: Name the recorded peptide exchange yield of the item ALANQIPTV in your answer.
Result: 20 to 50%

Ask: Name the recorded peptide exchange yield of the item FTLGNVVGMYL in your answer.
Result: ≥ 75%

Ask: Name the recorded peptide exchange yield of the item SLWQDIPDV in your answer.
Result: 50 to 75%

Ask: Name the recorded peptide exchange yield of the item KLDDLTQDLTV in your answer.
Result: 20 to 50%

Ask: Name the recorded peptide exchange yield of the item ALTEIAFVV in your answer.
Result: ≥ 75%

Ask: Name the recorded peptide exchange yield of the item YQIPRTFTL in your answer.
Result: 20 to 50%

Ask: Name the recorded peptide exchange yield of the item HIYDKVMTV in your answer.
Result: 50 to 75%

Ask: Name the recorded peptide exchange yield of the item ALQPEPIKV in your answer.
Result: 20 to 50%

Ask: Name the recorded peptide exchange yield of the item AMLNEPWAV in your answer.
Result: 50 to 75%

Ask: Name the recorded peptide exchange yield of the item ILTEENIHL in your answer.
Result: 50 to 75%
